- study_system: h-GABAA α1β3γ2 (Homo sapiens, UniProt P14867+P18507)
- measurement_protocol: Radioligand binding assay, [3H]Flumazenil competition, HEK293F membranes
- Description: The affinity of compounds at GABAA γ2 subunit-containing receptors was measured by competition for [^3H]Flumazenil (81.1 Ci/mmol; Roche) binding to HEK293F cells expressing human (transiently transfected) receptors of composition α1β3γ2. Harvested pellets from HEK293F cells expressing the different GABAA γ2 receptor subtypes were resuspended in Mannitol Buffer pH 7.2-7.4 and processed as described above for the cells expressing the GABAA γ1 subunit-containing receptors. […]
As shown below, each of these compounds has a reported Ki value.
// note: answer is a bare numeric in nM

Here's what some known entries look like.
In [3]: df
Out[3]:
                                   compound  parameter_measured  test_value
0  COc1nnc2n1-c1ccc(Cl)c(Cl)c1C(c1c(F)cccc1F)=NC2 [Example 90]                  Ki         305
1  Fc1cccc(F)c1C1=NCc2nnc(-c3cccnn3)n2-c2ccc(I)c(Cl)c21 [Example 39]                  Ki         360
2  Fc1cccc(F)c1C1=NCc2nnc(-c3cccnn3)n2-c2ccc(Br)c(Br)c21 [Example 42]                  Ki         243
3  O=c1[nH]nc2n1-c1ccc(Br)c(Cl)c1C(c1c(F)cccc1F)=NC2 [Example 13]                  Ki         331
4  CO[C@H]1C[C@H](c2nnc3n2-c2ccc(Cl)c(Cl)c2C(c2c(F)cccc2F)=NC3)C1 [Example 91]                  Ki        1340

Now for the compound whose Ki we want.
Param readout= Ki; system= h-GABAA α1β3γ2 (Homo sapiens, UniProt P14867+P18507); entry= Cc1nnc2n1-c1ccc(Br)cc1C(c1c(F)cccc1F)=NC2 [RE-A, reference compound] ; returns value. 5.6
